FYI, the data here is from ChEMBL document CHEMBL1201862.

- System: EKVX
- PROTOCOL_TEXT: NCI tumour cell line growth inhibition, 48 h
Calls of active or inactive are those of the source. No stated cut-off is given here; in the data, active = GI50 up to about 1.1 µM and inactive = higher.
Response enum: active, inactive

Consider the following illustrative entries.
In [3]: df
Out[3]:
                                   compound     label
0  COC1(C)C(=O)N2C1N(C(=O)OCc1ccccc1)CC2(C)C (stereo unspecified)  inactive
1           COc1cc(/C=N/c2ccccn2)cc(OC)c1OC  inactive
2             CC(=O)Nc1nc(O)c2nc(C=O)cnc2n1  inactive
3                    Oc1nc2nc3ccccc3nc2nc1O  inactive
4  Cc1ccc(S(=O)(=O)N/N=C(\c2nc3ccc([N+](=O)[O-])cc3nc2O)C(O)c2ccccc2Cl)cc1 (stereo unspecified)  inactive
5         CS(=O)(=O)ON1C(=O)c2ccc(N)cc2C1=O  inactive

Kindly consider the entry below.
Q) Look up the recorded call for O=c1[nH]c2c(C(F)(F)F)c(Cl)c(-c3ccccc3)nc2o1 in this test.
A) inactive

---

- System: SN12C
- PROTOCOL_TEXT: NCI tumour cell line growth inhibition, 48 h
Activity calls are given as the source filed them. Rule as the data show it: active = GI50 up to about 1.1 µM and inactive = higher.
Quick reference for GI50 among some compounds

>>> print(df.to_string())
                                   compound       value_measured
0  O=c1[nH]nc(-c2ccccc2)n1/N=C/c1c[nH]c2ccccc12  > 100 µM (inactive)
1     CCCCOc1ccc(OCCCCCCCCCC[N+](C)(C)C)cc1   3.62 µM (inactive)
2                    O=C(O)CSc1ccccc1C(=O)O  > 100 µM (inactive)
3  Cn1cc(NC(=O)c2cc(NC(=O)CCCCCCC(=O)Nc3cc(C(=O)Nc4cc(C(=O)NCCC(=N)N)n(C)c4)n(C)c3)cn2C)cc1C(=O)NCCC(=N)N   3.84 µM (inactive)
4  O=S(=O)(c1ccccc1)C(c1ccc2ccccc2n1)S(=O)(=O)c1ccccc1  > 100 µM (inactive)

// next entry
Lab book: GI50 of N#CC(NNC(=O)c1ccccc1O)c1cccc(O)c1 (stereo not given) noted as 4.7 µM (inactive)

---

Measured GI50 of individual entries
- System: TK-10
- PROTOCOL_TEXT: NCI tumour cell line growth inhibition, 48 h
Active and inactive are the calls of the source. Rule as the data show it: active = GI50 up to about 1.1 µM and inactive = higher.

Just so you know, measured GI50 for COc1nc(Cl)c(Cl)c(Cl)n1.COc1nc(Cl)nc(Cl)c1Cl came out at 8.73 µM (inactive)

---

- Tested on: SNB-78
- PROTOCOL_TEXT: NCI tumour cell line growth inhibition, 48 h
Calls of active or inactive are those of the source. Cut-off read from the data, not from the text of the source: active = GI50 up to about 1.1 µM and inactive = higher.
Let's look at some compounds and their measured GI50.

# annotated cases, reported GI50 shown
                                   compound  test_system  assay_readout       value_measured
0          N=C(N)C1=C(O)NC(=O)N(C2CCCCC2)C1       SNB-78           GI50  > 100 µM (inactive)
1  O=C(O)/C=C\C(=O)Nc1ccc(S(=O)(=O)c2ccc(NC(=O)/C=C\C(=O)O)cc2)cc1       SNB-78           GI50  > 100 µM (inactive)
2                COC(=O)CCSC(=O)Nc1ccccc1Cl       SNB-78           GI50  > 100 µM (inactive)
3  O=C(N/C(=C\c1cccc([N+](=O)[O-])c1)c1nc2c3c(ccc2[nH]1)C(=O)c1ccccc1C3=O)c1ccccc1       SNB-78           GI50  > 100 µM (inactive)
4  O=C1c2ccccc2C(=O)c2c(/C=C\N3CCCCC3)ccnc21       SNB-78           GI50   18.7 µM (inactive)

Consider now this further compound.
So for O=C1OCCC1C(O)C1c2ccccc2-c2ccccc21 (stereo unspecified) , the logged GI50 turned out to be > 100 µM (inactive)

---

- System: MCF7
- PROTOCOL_TEXT: NCI tumour cell line growth inhibition, 48 h
The source made the active and inactive calls. Cut-off read from the data, not from the text of the source: active = GI50 up to about 1.1 µM and inactive = higher.
Pick one and only one: T = active, F = inactive

Here's what some known entries look like.
>>> df
                                   molecule  label
0                Nc1nc(Cl)cc(NCC2(O)CCC2)n1      F
1     Cc1ccc(S(=O)(=O)NC(=O)Nc2nc[nH]n2)cc1      F
2  O=c1c(Cc2c(O)oc3cc(O)ccc3c2=O)c(O)oc2cc(O)ccc12      F

Q) Query: recorded result category for C[C@]12CC(c3ccccc3O1)C(C#N)C(=O)N2 (stereo partly specified) in this test
A) F

Q) Hi team, can someone confirm the assay call for O=C(NC(=O)c1ccccc1[N+](=O)[O-])Nc1ccc(Oc2ncc(Cl)cn2)c([N+](=O)[O-])c1 ?
A) T

Q) What was the test verdict on Nc1[nH]cnc2ncnc1-2 ?
A) F

---

- System: A498
- PROTOCOL_TEXT: NCI tumour cell line growth inhibition, 48 h
Activity calls are given as the source filed them. Cut-off read from the data, not from the text of the source: active = GI50 up to about 1.1 µM and inactive = higher.
Choose the fitting class; nothing outside active, inactive is accepted.

Q) Per the assay record, what outcome was assigned to CSc1nc(NC2OCC(O)C(O)C2O)c(N)c(=O)[nH]1 (configuration not stated) ?
A) inactive

Q) Recorded test outcome, item COc1ccc(/C(=N/N=c2[nH]c3ccccc3[nH]2)C(=O)O)cc1
A) inactive

Q) Called result for COc1ccc(/N=C2\C(=O)C3=C(OC(C)(C)CC3)c3ccccc32)cc1
A) inactive

Q) Kindly provide the recorded test outcome for the following molecule: CC1(C)C(O)C[C@@H](O)[C@@]2(C)C1CC[C@]1(C)C2C[C@@H](O)[C@@H]2C([C@@]3(C)CC[C@@H](C(C)(C)O)O3)CCC21C (some centres not stated)
A) inactive

Q) So what was the verdict on O=C([O-])C1([n+]2c(-c3ccccc3)cc(-c3ccccc3)cc2-c2ccccc2)CC1 in this test?
A) inactive

Q) Which outcome was entered for the molecule CCOC(=O)C(C)(C)Oc1ccc2c(C)c(-c3ccc(Cl)cc3)c(=O)oc2c1 in this test?
A) inactive

Q) Call for entry COc1nc(Cl)c(Cl)c(Cl)n1.COc1nc(Cl)nc(Cl)c1Cl :
A) inactive

Q) Each molecule tested received a call. Report the one for O=C(Oc1ccccc1)c1cc2cc(CCl)ccc2oc1=O .
A) inactive

Q) Given CCOC(=O)/C=C(\C)c1ccc(OC)cc1 , state the outcome it received in this test.
A) inactive

Q) What did the test return for Cc1ccc2nc3c(C(=O)NCCN(C)C)cccc3nc2c1 ?
A) inactive

---

GI50 values, listed per item
- System: NCI-H226
- PROTOCOL_TEXT: NCI tumour cell line growth inhibition, 48 h
Active and inactive are the calls of the source. No stated cut-off is given here; in the data, active = GI50 up to about 1.1 µM and inactive = higher.

Examples from the recorded data:
COMPOUND	VALUE_MEASURED
CCOC(=O)c1ccc(/N=C2\Sc3nc4ccccc4n3\C2=N\c2ccc(C(=O)OCC)cc2)cc1	29.2 µM (inactive)
CC(=O)O[C@@H]1O[Si](C(C)(C)C)(C(C)(C)C)[C@H](C)[C@H]1C	> 100 µM (inactive)
CC(NC(=O)OC(C)(C)C)C(=O)NC(Cc1ccccc1)C(=O)NCC(=O)ON=C1CCCC1 (stereo not given)	> 100 µM (inactive)
C[C@]12CC(c3ccccc3O1)C(C#N)C(=O)N2 (stereo not given in full)	> 100 µM (inactive)

Please turn your attention to the following entry.
compound CCCCc1ccc(N2C(=O)c3cccnc3S2(=O)=O)cc1 , GI50 observed: > 100 µM (inactive)

---

- Tested on: A549
- PROTOCOL_TEXT: NCI tumour cell line growth inhibition, 48 h
Activity calls are given as the source filed them. Cut-off read from the data, not from the text of the source: active = GI50 up to about 1.1 µM and inactive = higher.
# output must be one of true for active, false for inactive

>>> print(df.to_string())
                                   compound  label
0  CC1=C2c3ccccc3N(S(=O)(=O)c3ccccc3)[C@H]2[C@H](C(=O)N2C3CC4CC[C@@]3(CS2(=O)=O)C4(C)C)CC1 (stereo partly specified)  false
1                  CN(C)CCCNCc1cccc2ccccc12  false
2  Cc1c(-c2ccccc2)c(C#N)c2nnn(C3CCCCC3)c(=O)n12  false
3  CC(C)NC(=O)OCc1c(COC(=O)NC(C)C)c(-c2ccc[n+](COC(=O)C3CC3)c2)n2c1CCC2  false
4       CN(C)C(=O)Oc1ccc(C(=S)Nc2ccccc2)cc1  false
5  C=CCC1(CN(C)C)CC/C(=C\c2ccc(Cl)cc2)C1=O (stereo unspecified)  false
6  Cc1cc(C)c2c(c1C)CN1CN2Cc2c(C)c(C)cc(C)c21  false
7  CCN1CCN=C2c3cc(OC)ccc3Nc3c([N+](=O)[O-])ccc1c32   true

Q) Returns: the outcome recorded for COc1cc2nc3n(c(=O)c2cc1OC)CCCCC3 in this assay.
A) false

Q) Record request — test call for CNC(=O)N(CCCC(NC(C)=O)C(=O)NCc1ccccc1)Cc1ccccc1 (stereo unspecified)
A) false

Q) Returns: the outcome recorded for O=C(N/C=C/C=C/Sc1ccccc1)OCc1ccccc1 in this assay.
A) false
